Reported values of Activity for individual entries
system: SMMC-7721; test: Cell cycle arrest in human SMMC7721 cells assessed as accumulation of cells at G2/M phase at 1 umol/L after 72 hrs by propidium iodide staining-based flow cytometric analysis (reference value: 14.14%); type: functional
The response must be a number in % with no trailing unit.

Query string: Kindly indicate its recorded Activity. Item: CCN(Cc1ccncc1)C(=S)SCc1ccc(C(=O)Nc2ccccc2N)cc1
Result string: 21.11

Query string: Kindly indicate its recorded Activity. Item: Nc1ccccc1NC(=O)c1ccc(CNC(=O)OCc2cccnc2)cc1
Result string: 15.55

Query string: Kindly indicate its recorded Activity. Item: Nc1ccccc1NC(=O)c1ccc(CSC(=S)N2CCc3ccccc3C2)cc1
Result string: 23.16

Query string: Kindly indicate its recorded Activity. Item: Nc1ccc(F)cc1NC(=O)c1ccc(CNC(=O)/C=C/c2cccnc2)cc1
Result string: 18.67

New cases:
Query string: Kindly indicate its recorded Activity. Item: Nc1ccccc1NC(=O)c1ccc(CSC(=S)N2CCN(c3ccncc3)CC2)cc1
Result string: 13.68
